pIC50: −log10 of the molar value.
Measured pIC50 on PAF receptor (human platelet membrane) (Homo sapiens, UniProt P25105) follows.
Value type: pIC50

>>> endpoint_result("COc1cc(C(=O)N(C(C)C)C2CCCCC2)ccc1Cn1c(CO[Si](C)(C)C(C)(C)C)nc2ncccc21")
7.29
>>> endpoint_result("COc1cc(C(=O)N(C(C)C)C2CCCCC2)ccc1Cn1c(CN(C)C)nc2cccnc21")
8.00
>>> endpoint_result("COc1cc(C(=O)N(C2CCCC2)C2CCCC2)ccc1Cn1cnc2cccnc21")
5.99

----------
Measured target: [^3 H]PAF receptors on human neutrophil membrane (Homo sapiens)
Construct: Human neutrophils were isolated from venous blood by dextran sedimentation
Sequence (P25105 whole entry): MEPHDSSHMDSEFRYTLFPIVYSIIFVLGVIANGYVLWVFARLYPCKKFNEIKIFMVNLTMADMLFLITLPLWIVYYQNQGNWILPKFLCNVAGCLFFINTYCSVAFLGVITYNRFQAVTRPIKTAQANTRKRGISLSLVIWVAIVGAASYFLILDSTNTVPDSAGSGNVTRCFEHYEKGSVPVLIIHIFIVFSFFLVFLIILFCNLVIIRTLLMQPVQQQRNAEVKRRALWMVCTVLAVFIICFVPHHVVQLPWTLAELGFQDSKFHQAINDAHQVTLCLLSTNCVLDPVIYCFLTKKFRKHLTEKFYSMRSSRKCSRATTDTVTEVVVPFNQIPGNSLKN
Assay overview: Assay C: Human Neutrophil Receptor Binding (inhibition of specific [^3 H]PAF binding to human neutrophil membrane)
Condition notes: human neutrophil membranes, 0.9 nM [^3 H]PAF, 30 minutes at 24°, pH 7.4
Measured IC50, listed per entry.
Value type: IC50 (nM)

>>> endpoint_result("COc1cc(Cn2cnc3cccnc32)ccc1C(=O)N(C(C)C)C1CCCCC1")
0.5
>>> endpoint_result("COc1cc(C(=O)N(C(C)C)C2CCCCC2)ccc1Cn1cnc2ncccc21")
8
>>> endpoint_result("COc1cc(Cn2cnc3ncccc32)ccc1C(=O)N(C1CCCC1)C1CC(C)CC(C)C1 (stereo not drawn)")
23

----------
Measured target: PAF receptor (human platelet membrane) (Homo sapiens, UniProt P25105)
pIC50: −log10 of the molar value.
Criterion: pIC50 meeting or surpassing 8. Met: t. Not met: f.

>>> class_name("COc1cc(C(=O)N(C(C)C)C2CCCCC2)ccc1Cn1c(-c2ccccc2Cl)nc2cccnc21")
"f"
>>> class_name("COc1cc(C(=O)N(C(C)C)C2CCCCC2)ccc1Cn1cnc2cccnc21")
"f"
>>> class_name("COc1cc(Cn2cnc3ncccc32)ccc1C(=O)N(C1CCCC1)C1CC(C)CC(C)C1 (centres unmarked)")
"f"
>>> class_name("Cc1cc(C(=O)N(C2CCCCC2)C2CCCC2)ccc1Cn1cnc2ncccc21")
"f"
>>> class_name("COc1cc(Cn2cnc3cccnc32)ccc1C(=O)N(C(C)C)C1CCCCC1")
"t"
>>> class_name("Cc1cc(C(=O)N(C2CCCCC2)C2CCCC2)ccc1Cn1cnc2cccnc21")
"f"
>>> class_name("COc1cc(C(=O)N(C(C)C)C2CCCCC2)ccc1Cn1c(CN(C)C)nc2ncccc21")
"t"

The measured values listed here are drawn from patent US5359073A.
